The measured values listed here are drawn from PubChem BioAssay AID1963828.

System: 991263-137-R1-J2-PDC complex spheroid viability
EXPERIMENTAL PROTOCOL: Anticancer human tumor 991263-137-R1-J2-PDC patient-derived colon adenocarcinoma cell line growth inhibition [POLQ]
CONDITION INFO: curve of first compound; second compound 10 µM
pIC50: −log10 of the molar value.
RESULT TYPE: pIC50

Reference set, count: 2
INSERT INTO results (compound, experimental_result) VALUES
  ('CC(C)n1c(=O)n(C)c2cnc3cc(F)c(-c4ccc(OCCCN5CCCCC5)nc4)cc3c21 + Nc1ccc(C#CCN(C(=O)Cc2ncc(C(F)(F)F)cc2C(F)(F)F)c2ccc(F)cc2)nn1', '< 5.00'),
  ('CC[C@@]1(O)C(=O)OCc2c1cc1n(c2=O)Cc2cc3c(CN(C)C)c(O)ccc3nc2-1 + Nc1ccc(C#CCN(C(=O)Cc2ncc(C(F)(F)F)cc2C(F)(F)F)c2ccc(F)cc2)nn1', '< 7.00');

Now turn to the next compound.
Item under review: CC1COCCN1c1cc(C2(O)CC3CCC(C2)O3)c2cnn(-c3ccn[nH]3)c2n1 (stereo not drawn) + COC1C(OC(N)=O)C(O)C(Oc2ccc3c(O)c(NC(=O)c4ccc(O)c(CC=C(C)C)c4)c(=O)oc3c2C)OC1(C)C . Reported pIC50?
5.84

====

Tested on: 991263-137-R1-J2-PDC complex spheroid viability
EXPERIMENTAL PROTOCOL: Anticancer human tumor 991263-137-R1-J2-PDC cell line growth inhibition [POLQ];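 note: spheroids exposed to compounds for 7 days before readout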;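 for viability, T/C: 100% = DMSO vehicle control viability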
CONDITION INFO: second compound 0.1 µM; first compound 0.316 µM; stronger effect = lower value
RESULT TYPE: viability, T/C

Recorded results for 3 compounds are shown here.
INSERT INTO results (compound, assay_system, result_type, experimental_result) VALUES
  ('CC(C)n1c(=O)n(C)c2cnc3cc(F)c(-c4ccc(OCCCN5CCCCC5)nc4)cc3c21 + Cc1cccc(N(C)C(=O)C2C(O)CCN2c2nc(C)cc(C(F)(F)F)c2C#N)c1', '991263-137-R1-J2-PDC complex spheroid viability', 'viability, T/C', '115%'),
  ('COc1ccc([C@@H](O)c2cc(-c3ncnc4cc(N5CCOCC5)ccc34)c(F)cc2Cl)nn1 + COC1C(OC(N)=O)C(O)C(Oc2ccc3c(O)c(NC(=O)c4ccc(O)c(CC=C(C)C)c4)c(=O)oc3c2C)OC1(C)C', '991263-137-R1-J2-PDC complex spheroid viability', 'viability, T/C', '84.6%'),
  ('C=CCn1c(=O)c2cnc(Nc3ccc(N4CCN(C)CC4)cc3)nc2n1-c1cccc(C(C)(C)O)n1 + COC1C(OC(N)=O)C(O)C(Oc2ccc3c(O)c(NC(=O)c4ccc(O)c(CC=C(C)C)c4)c(=O)oc3c2C)OC1(C)C', '991263-137-R1-J2-PDC complex spheroid viability', 'viability, T/C', '108%');

Which viability, T/C is listed for CC1COCCN1c1cc(C2(S(C)(=N)=O)CC2)nc(-c2ccnc3[nH]ccc23)n1 (stereo not given) + COC1C(OC(N)=O)C(O)C(Oc2ccc3c(O)c(NC(=O)c4ccc(O)c(CC=C(C)C)c4)c(=O)oc3c2C)OC1(C)C ?
101%

Quick check: viability, T/C of Nc1ccn(C2OC(CO)C(O)C2(F)F)c(=O)n1 (stereo not given) + COC1C(OC(N)=O)C(O)C(Oc2ccc3c(O)c(NC(=O)c4ccc(O)c(CC=C(C)C)c4)c(=O)oc3c2C)OC1(C)C ?
57.5%

May I ask what viability, T/C has been recorded for COc1cc(C2c3cc4c(cc3C(OC3OC5COC(C)OC5C(O)C3O)C3COC(=O)C23)OCO4)cc(OC)c1O (stereo not given) + Cc1cccc(N(C)C(=O)C2C(O)CCN2c2nc(C)cc(C(F)(F)F)c2C#N)c1 ?
75.8%

Could you tell me which viability, T/C is on file for O=C(c1cc(Cc2n[nH]c(=O)c3ccccc23)ccc1F)N1CCN(C(=O)C2CC2)CC1 + COC1C(OC(N)=O)C(O)C(Oc2ccc3c(O)c(NC(=O)c4ccc(O)c(CC=C(C)C)c4)c(=O)oc3c2C)OC1(C)C ?
100%

Query (compound): O=c1[nH]cc(F)c(=O)[nH]1 + Cc1cccc(N(C)C(=O)C2C(O)CCN2c2nc(C)cc(C(F)(F)F)c2C#N)c1 ; field requested: viability, T/C
79.6%

====

System: 991263-137-R1-J2-PDC complex spheroid viability
EXPERIMENTAL PROTOCOL: Anticancer human tumor 991263-137-R1-J2-PDC cell line growth inhibition [POLQ];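 note: spheroids exposed to compounds for 7 days before readout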;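 for viability, T/C: 100% = DMSO vehicle control viability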
CONDITION INFO: second compound 0.1 µM; first compound 3.16 µM; stronger effect = lower value
RESULT TYPE: viability, T/C

Examples from the recorded data:
INSERT INTO assay_data (compound, experimental_result) VALUES
  ('C=CC(=O)N1CCN(c2nc(=O)n(-c3c(C)ccnc3C(C)C)c3nc(-c4c(O)cccc4F)c(F)cc23)C(C)C1 (stereo not drawn) + Nc1ccc(C#CCN(C(=O)Cc2ncc(C(F)(F)F)cc2C(F)(F)F)c2ccc(F)cc2)nn1', '117%'),
  ('CCc1cc2c(N3CCc4c(cc(Cn5ccnc5)cc4-c4cn(C)nc4C(F)(F)F)C3=O)cc(C)nc2c(OC)n1 + Nc1ccc(C#CCN(C(=O)Cc2ncc(C(F)(F)F)cc2C(F)(F)F)c2ccc(F)cc2)nn1', '109%');

Shift focus to the following entry.
Query: viability, T/C; subject: COc1ccc([C@@H](O)c2cc(-c3ncnc4cc(N5CCOCC5)ccc34)c(F)cc2Cl)nn1 + COC1C(OC(N)=O)C(O)C(Oc2ccc3c(O)c(NC(=O)c4ccc(O)c(CC=C(C)C)c4)c(=O)oc3c2C)OC1(C)C
55.6%

====

Reported viability, T/C values for the following molecules.
Tested on: 991263-137-R1-J2-PDC complex spheroid viability
EXPERIMENTAL PROTOCOL: Anticancer human tumor 991263-137-R1-J2-PDC cell line growth inhibition [POLQ];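 note: spheroids exposed to compounds for 7 days before readout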;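 for viability, T/C: 100% = DMSO vehicle control viability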
CONDITION INFO: second compound 0.1 µM; first compound 0.0316 µM; stronger effect = lower value
Return type: number; implicit unit %.

INSERT INTO measurements (molecule, assay_system, result_type, unit_descriptor, experimental_result) VALUES
  ('C=CCn1c(=O)c2cnc(Nc3ccc(N4CCN(C)CC4)cc3)nc2n1-c1cccc(C(C)(C)O)n1 + Nc1ccc(C#CCN(C(=O)Cc2ncc(C(F)(F)F)cc2C(F)(F)F)c2ccc(F)cc2)nn1', '991263-137-R1-J2-PDC complex spheroid viability', 'viability, T/C', '%', 93.6),
  ('C=CC(=O)N1CCN(c2nc(=O)n(-c3c(C)ccnc3C(C)C)c3nc(-c4c(O)cccc4F)c(F)cc23)C(C)C1 (stereo not given) + COC1C(OC(N)=O)C(O)C(Oc2ccc3c(O)c(NC(=O)c4ccc(O)c(CC=C(C)C)c4)c(=O)oc3c2C)OC1(C)C', '991263-137-R1-J2-PDC complex spheroid viability', 'viability, T/C', '%', 108),
  ('COc1cc(C2c3cc4c(cc3C(OC3OC5COC(C)OC5C(O)C3O)C3COC(=O)C23)OCO4)cc(OC)c1O (stereo not given) + COC1C(OC(N)=O)C(O)C(Oc2ccc3c(O)c(NC(=O)c4ccc(O)c(CC=C(C)C)c4)c(=O)oc3c2C)OC1(C)C', '991263-137-R1-J2-PDC complex spheroid viability', 'viability, T/C', '%', 118),
  ('COc1cc2cc(C(=O)CCC(=O)O)sc2cc1OC + COC1C(OC(N)=O)C(O)C(Oc2ccc3c(O)c(NC(=O)c4ccc(O)c(CC=C(C)C)c4)c(=O)oc3c2C)OC1(C)C', '991263-137-R1-J2-PDC complex spheroid viability', 'viability, T/C', '%', 99.9),
  ('CNCc1ccc(-c2[nH]c3cc(F)cc4c3c2CCNC4=O)cc1 + COC1C(OC(N)=O)C(O)C(Oc2ccc3c(O)c(NC(=O)c4ccc(O)c(CC=C(C)C)c4)c(=O)oc3c2C)OC1(C)C', '991263-137-R1-J2-PDC complex spheroid viability', 'viability, T/C', '%', 106),
  ('COc1cccc(OCCCN)c1-c1cc(Nc2cnc(C#N)cn2)n[nH]1 + COC1C(OC(N)=O)C(O)C(Oc2ccc3c(O)c(NC(=O)c4ccc(O)c(CC=C(C)C)c4)c(=O)oc3c2C)OC1(C)C', '991263-137-R1-J2-PDC complex spheroid viability', 'viability, T/C', '%', 92.9),
  ('CCc1c2c(nc3ccc(O)cc13)-c1cc3c(c(=O)n1C2)COC(=O)[C@]3(O)CC + Cc1cccc(N(C)C(=O)C2C(O)CCN2c2nc(C)cc(C(F)(F)F)c2C#N)c1', '991263-137-R1-J2-PDC complex spheroid viability', 'viability, T/C', '%', 67.2),
  ('CC1COCCN1c1cc(C2(S(C)(=N)=O)CC2)nc(-c2ccnc3[nH]ccc23)n1 (stereo not given) + COC1C(OC(N)=O)C(O)C(Oc2ccc3c(O)c(NC(=O)c4ccc(O)c(CC=C(C)C)c4)c(=O)oc3c2C)OC1(C)C', '991263-137-R1-J2-PDC complex spheroid viability', 'viability, T/C', '%', 113);

viability, T/C for CC(C)n1c(=O)n(C)c2cnc3cc(F)c(-c4ccc(OCCCN5CCCCC5)nc4)cc3c21 + Cc1cccc(N(C)C(=O)C2C(O)CCN2c2nc(C)cc(C(F)(F)F)c2C#N)c1 ?
96.6

Look up viability, T/C for this molecule: CCc1cc2c(N3CCc4c(cc(Cn5ccnc5)cc4-c4cn(C)nc4C(F)(F)F)C3=O)cc(C)nc2c(OC)n1 + COC1C(OC(N)=O)C(O)C(Oc2ccc3c(O)c(NC(=O)c4ccc(O)c(CC=C(C)C)c4)c(=O)oc3c2C)OC1(C)C
109
